The compounds below each have a reported pIC50 tested on Tyrosine-protein phosphatase non-receptor type 2 (Homo sapiens); the values come from various publications.
Sequence (P17706 whole entry): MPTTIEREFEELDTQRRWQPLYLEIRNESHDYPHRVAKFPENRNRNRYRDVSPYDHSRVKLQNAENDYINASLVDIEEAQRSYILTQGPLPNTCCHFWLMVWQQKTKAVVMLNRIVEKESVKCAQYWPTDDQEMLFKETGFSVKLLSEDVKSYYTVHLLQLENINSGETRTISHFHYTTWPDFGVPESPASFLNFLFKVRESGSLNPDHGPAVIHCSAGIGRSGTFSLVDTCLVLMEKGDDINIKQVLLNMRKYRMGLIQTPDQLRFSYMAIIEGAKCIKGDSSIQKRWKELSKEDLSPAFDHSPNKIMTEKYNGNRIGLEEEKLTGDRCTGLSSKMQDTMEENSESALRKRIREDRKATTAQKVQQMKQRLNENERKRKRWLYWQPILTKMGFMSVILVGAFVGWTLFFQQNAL
API: returns pIC50 as number; meaning -log10 of concentration in mol/L.

Complete the entry with pIC50 for CS(=O)(=O)CCCOc1cc(C(N)=O)cc2c(C3CC3)c(C(F)(F)P(=O)(O)O)sc12
7.17

Complete the entry with pIC50 for O=C1NC(=O)/C(=C/c2ccccc2OCc2ccc(Cl)cc2)N1
4.44

Complete the entry with pIC50 for CC(C)(C)C1CCN(CCc2cc(O)c(N3CC(=O)NS3(=O)=O)c(F)c2)C1 (configuration not stated)
8.70

Complete the entry with pIC50 for CC(C)[C@H]1CCN(CCc2cc(O)c(N3CC(=O)NS3(=O)=O)c(F)c2)C1
8.70

Complete the entry with pIC50 for CO[C@H]1O[C@H](Cn2cc(Cn3cnc4c(Cl)nc(N)nc43)nn2)[C@H](OCc2ccccc2)[C@H](OCc2ccccc2)[C@H]1OCc1ccccc1
4.27

Complete the entry with pIC50 for CO[C@H]1O[C@H](COCc2cn(-c3ccc(C(=O)C(=O)O)cc3)nn2)[C@@H](OCc2ccccc2)[C@H](OCc2ccccc2)[C@H]1OCc1ccccc1
4.84
